# Tested on: SW-620 colon
# protocol description: NCI-60 one-dose screen, 48 h
# experimental context: 10 µM unless noted
About 83,000 compounds went through this panel and 20% of them were active in at least one assay; those are over-represented in the sample as a whole. Calls of active or inactive are those of the source. Rule for the calls: active = growth percent below 10; inactive = the rest.
The reply should name one outcome from active, inactive

Task item: What outcome does the record of this test show for "Cc1nn2c(-c3nc4cc(Cl)c(Cl)cc4[nH]3)c(-c3ccc(F)cc3)nc2s1" ?
Reply: inactive

Task item: What outcome does the record of this test show for "C[C@H]1OC(=O)/C=C/[C@@H](O)[C@@H](O)CCCCCCCC[C@@H]1O" ?
Reply: inactive

Task item: What outcome does the record of this test show for "C[Si](C)(C)Cc1ccccc1" ?
Reply: inactive

Task item: What outcome does the record of this test show for N#CC1=C(N)Oc2ccc3ccccc3c2C1c1ccccc1 (stereo not given) ?
Reply: inactive

Task item: What outcome does the record of this test show for "C=C1C(=O)O[C@H]2[C@H]1CC/C(Cn1cc(-c3ccc(F)cc3)nn1)=C\CC[C@@]1(C)O[C@@H]21" ?
Reply: active

Task item: What outcome does the record of this test show for N#CC1=C(N)Oc2ccc3ccccc3c2C1c1ccccc1Cl (stereo not given) ?
Reply: inactive

Task item: What outcome does the record of this test show for COc1ccc2c(c1)C(Br)=C(CCO)C2c1ccccc1 (stereo not given) ?
Reply: inactive

Task item: What outcome does the record of this test show for "COc1cccc(-c2nn(-c3ccccc3)cc2-c2ccnc(NCCCNS(=O)(=O)c3ccc(Br)cc3)c2)c1" ?
Reply: inactive

Task item: What outcome does the record of this test show for "Cn1cc(-c2csc(-c3cn(CCNC(=O)OC(C)(C)C)c4ccccc34)n2)c2cccnc21" ?
Reply: inactive

Task item: What outcome does the record of this test show for "O=C(N/N=C\c1c(O)ccc2ccccc12)C1CC1" ?
Reply: inactive

// provenance: PubChem BioAssay (NCI)
